test system: MDA-N; test: NCI tumour cell line growth inhibition, 48 h
Calls of active or inactive are those of the source. No stated cut-off is given here; in the data, active = GI50 up to about 1.1 µM and inactive = higher.
Consider the following compounds and their measured GI50 readings.

Some solved entries appear below for comparison.
INSERT INTO measurements (compound, reported_measurement) VALUES
  ('CC1OC23CCCCC2C(C#N)(C#N)C1(C#N)C(=N)O3 (stereo unspecified)', '18.4 µM (inactive)'),
  ('COC(=O)c1ccccc1NC(=O)/C(=N\NC(C)(C)C)C(C#N)c1nc(-c2ccc([N+](=O)[O-])cc2)cs1 (stereo unspecified)', '> 100 µM (inactive)'),
  ('CC1CCN(c2nnc(Cl)cc2C(=O)c2ccccc2)CC1', '21.7 µM (inactive)'),
  ('C=CCn1c(-c2ccc(Cl)cc2Cl)cs/c1=N\c1c(C)n(C)n(-c2ccccc2)c1=O', '8.55 µM (inactive)'),
  ('Cn1c(N)nc(-c2ccc(Cl)cc2)c1SSc1c(-c2ccc(Cl)cc2)nc(N)n1C', '1.77 µM (inactive)');

# input for lookup
Data request, read-out GI50, for O=C1c2c(ccc3c2CCC3)CC1Cc1ccc2c(c1)CCC2 (stereo unspecified)
30.8 µM (inactive)
